B1: RHOBTB1 (parent)
chain: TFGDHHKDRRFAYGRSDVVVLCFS

Variants of: B1
Assay: protein stability index of a GFP-peptide fusion (GPS, HEK-293T) (PSI 1-6); higher = more stable;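 also: lentivirally expressed fusions sorted by FACS into six bins by GFP to DsRed ratio, PSI derived from sequencing read proportions per bin multiplied by bin number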
Settings: c terminus: a fixed tail appended
Assay metric: protein stability index

[[record]]
changes = "V19I"
result_value = 2.14

[[record]]
changes = "R10Q"
result_value = 2.27

[[record]]
changes = "S24R"
result_value = 2.95

[[record]]
changes = "D8Y"
result_value = 4.4

[[record]]
changes = "L21P"
result_value = 2.56

[[record]]
changes = "S24T"
result_value = 2.16

[[record]]
changes = "F11P"
result_value = 1.89

[[record]]
changes = "S24P"
result_value = 1.48

[[record]]
changes = "G3D"
result_value = 2.11

[[record]]
changes = "S16W"
result_value = 2.29

